# protocol: folding stability dG unfold (combined trypsin and chymotrypsin); higher = more stable
readout.label: folding stability dG unfold

Entry SAGGSAGGSAGGPPTTARITLPDGRTYTVPVPVDPTTGTVYVEDIRRAVAPNYTFTIELGSAGGSAGGSAGG [r7_492_TrMRF] : reported folding stability dG unfold = ? 0.414 kcal/mol

Quick one: SVPPFLNLPEAAKALAKAKPGPPVPRLTFPVTTDDPEEALEEILKQYPHLHPDKIKRVEVGDGYLTVEFGSA [r9_723_TrMRF] < -1 kcal/mol

Quick one: SAMRIVVPYRETLRLTGLPEDTPLEEFRERFERIFRRLMERGVRPVRIEIYEIGDERYIVVEIETPGGASAG [r14_158_TrMRF] 3.62 kcal/mol

Quick one: SAGPPWEPVPITPEIIDKLADKLNPGFPISLQVYRHPDGRVKISIRNEGSGKEYTLVVDPDGDIEIEPSAGG [r19_70_TrROS] 3.4 kcal/mol
